Source of measurements: ChEMBL document CHEMBL4359914

system.name: UniProt P08183
experiment.summary: Inhibition of MDR1 (unknown origin) expressed in MDCK-MDR1 cells assessed as decrease in ATP consumption at 10 uM incubated for 2 hrs by ATPlite luminescence assay relative to control
Type: cell-based
study.conditions: MDCK-MDR1 cells expressing MDR1
value.kind: inhibition at 2 h, 10 µM (%)

query.smiles | system.name | value.kind | unit.abbrev | assay.result
COc1cc(/C=C/C(=O)OC[C@@H](C)CN(C)CCCOC(=O)c2cc(OC)c(OC)c(OC)c2)cc(OC)c1OC | UniProt P08183 | inhibition at 2 h, 10 µM | % | 20

----------
system.name: ATP-dependent translocase ABCB1 (Homo sapiens)
Sequence (P08183 whole entry): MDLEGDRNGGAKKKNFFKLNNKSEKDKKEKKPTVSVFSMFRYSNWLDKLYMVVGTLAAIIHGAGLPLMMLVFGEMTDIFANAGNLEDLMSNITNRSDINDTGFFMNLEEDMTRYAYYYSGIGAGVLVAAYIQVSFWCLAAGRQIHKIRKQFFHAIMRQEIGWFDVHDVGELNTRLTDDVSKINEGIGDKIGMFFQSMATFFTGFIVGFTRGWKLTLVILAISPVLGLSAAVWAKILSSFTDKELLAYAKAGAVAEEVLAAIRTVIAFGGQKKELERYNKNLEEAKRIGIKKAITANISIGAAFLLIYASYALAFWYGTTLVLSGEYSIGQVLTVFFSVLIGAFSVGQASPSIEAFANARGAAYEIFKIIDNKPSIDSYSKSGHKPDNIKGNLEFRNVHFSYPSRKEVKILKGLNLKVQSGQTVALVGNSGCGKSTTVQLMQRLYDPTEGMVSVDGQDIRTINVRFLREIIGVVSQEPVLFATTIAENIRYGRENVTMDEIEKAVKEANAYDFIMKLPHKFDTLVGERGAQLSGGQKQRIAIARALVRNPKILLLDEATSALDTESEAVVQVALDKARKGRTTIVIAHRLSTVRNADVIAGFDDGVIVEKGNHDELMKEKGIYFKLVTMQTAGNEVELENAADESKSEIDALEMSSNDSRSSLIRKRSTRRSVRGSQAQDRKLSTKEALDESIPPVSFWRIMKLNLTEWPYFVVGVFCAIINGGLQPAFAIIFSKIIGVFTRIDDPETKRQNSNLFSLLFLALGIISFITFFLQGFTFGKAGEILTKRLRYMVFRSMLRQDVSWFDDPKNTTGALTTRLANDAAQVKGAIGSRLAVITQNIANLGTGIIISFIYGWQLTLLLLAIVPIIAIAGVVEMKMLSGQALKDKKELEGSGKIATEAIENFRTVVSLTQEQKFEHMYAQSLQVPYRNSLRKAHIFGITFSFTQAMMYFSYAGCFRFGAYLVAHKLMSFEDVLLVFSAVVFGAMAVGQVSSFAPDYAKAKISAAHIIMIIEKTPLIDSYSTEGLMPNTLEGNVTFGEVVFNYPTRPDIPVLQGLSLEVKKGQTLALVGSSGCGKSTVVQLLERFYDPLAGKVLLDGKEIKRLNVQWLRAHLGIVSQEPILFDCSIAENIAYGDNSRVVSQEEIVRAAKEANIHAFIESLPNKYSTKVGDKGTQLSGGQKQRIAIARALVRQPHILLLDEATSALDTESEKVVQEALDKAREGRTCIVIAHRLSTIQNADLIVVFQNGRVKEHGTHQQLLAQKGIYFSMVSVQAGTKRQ
experiment.summary: Inhibition of P-gp (unknown origin) expressed in MDCK-MDR1 cells assessed as increase in calcein-AM accumulation incubated for 30 mins by calcein-AM dye based fluorescence assay
Listed next: entries and their corresponding EC50.

query.smiles | unit.abbrev | EC50
COc1cc(/C=C/C(=O)OC[C@H](C)CN(C)CCCCCOC(=O)c2cc(OC)c(OC)c(OC)c2)cc(OC)c1OC | µM | 1
COc1cc(/C=C/C(=O)OCCCCCN(C)C[C@H](C)COC(=O)c2cc(OC)c(OC)c(OC)c2)cc(OC)c1OC | µM | 0.11
COc1cc(/C=C/C(=O)OC[C@H](C)CN(C)CCCOC(=O)c2cc(OC)c(OC)c(OC)c2)cc(OC)c1OC | µM | 0.71
COc1cc(/C=C/C(=O)OC[C@@H](C)CN(C)CCCCCCCOC(=O)c2c3ccccc3cc3ccccc23)cc(OC)c1OC | µM | 0.93
